Test system: Fibroblast
measurement_notes: Incucyte cell viability with human fibroblast; further: unitless GR value; below 1 slowed growth and below 0 cell loss
Type: toxicity, cell-based
run_parameters: 12 h, 10 µM, compound concentration 10 uM, replicate number 1, timepoint 12 hours
property_name: Growth Rate

compound | quantitative_readout
CCc1nnc(NS(=O)(=O)c2ccc(NC(=S)NC(=O)/C=C/c3ccc(F)cc3)cc2)s1 | 0.7
CO[C@H]1CNC[C@@H](OCC2CCC(F)(F)CC2)[C@@H]1Nc1ncc(-c2cncc(C)c2)c2cc(C)c(=O)[nH]c12 | 0.16
O=C(Nc1cc(C(F)(F)F)ccc1N1CCCCC1)c1ccncc1 | 0.52
CCCCCC(O)/C=C/[C@H]1C(=O)CC(O)C1C/C=C\CCCC(=O)O (stereo not given in full) | 0.36
CCOC(=O)N[C@@H]1CC[C@@H]2[C@@H](C1)C[C@H]1C(=O)O[C@H](C)[C@H]1[C@H]2/C=C/c1ccc(-c2cccc(F)c2)cn1 | -0.08
O=C(N[C@@H]1CC[C@@H](c2cccc(F)c2F)CN(CC(F)(F)F)C1=O)N1CCC(n2c(=O)[nH]c3ncccc32)CC1 | 0.01
CCN1C(=CC(C)=O)Sc2ccc(OC)cc21 | 0.45
Nc1nc(Nc2ccccc2)nc2c1ncn2[C@@H]1O[C@H](CO)[C@@H](O)[C@H]1O | 0.83
CC(COc1ccccc1)N(CCCl)Cc1ccccc1.Cl (stereo not given) [PHENOXYBENZAMINE HYDROCHLORIDE] | 0.55
Cl.Clc1ccc2nsnc2c1NC1=NCCN1 [TIZANIDINE HYDROCHLORIDE] | 0.72
O=C1NCc2ccc3c(-c4cccc(Cl)c4)c[nH]c3c21 | -0.86
Br.Br.c1ncc(CC2CCNCC2)[nH]1 | 0.69
O=C1c2c(Br)c(Br)c(Br)c(Br)c2C(=O)N1c1ncc[nH]1 | 0.69
CCC(=O)N1CC[C@H](Nc2ncnc3c2CN(c2cnc(OC)c(C(F)(F)F)c2)CC3)C1 | 0.26
CC(=O)O[C@H]1C(=O)[C@@]2(C)[C@H]([C@H](OC(=O)c3ccccc3)[C@]3(O)C[C@H](OC(=O)[C@H](O)[C@@H](NC(=O)c4ccccc4)c4ccccc4)C(C)=C1C3(C)C)[C@]1(OC(C)=O)CO[C@@H]1C[C@@H]2O | -0.65
CN(C)CCCc1cc(C(=O)Nc2ccc(-c3ccncc3)cc2)ccc1O.Cl.Cl | 0.34
CN(C)C(=O)Cn1cc(-c2ccc(-c3nnc4ccccn34)cc2)cn1 | 0.37
CCCCCCCCCCCCC/C=C/[C@@H](O)[C@@H](N)COP(=O)(O)O | 0.19
NC(N)=Nc1nc(CSCCC(N)=NS(N)(=O)=O)cs1 | 0.41
CCCN(CCc1cccs1)[C@H]1CCc2c(O)cccc2C1 | 0.84
CC(C)Oc1ccc(Cc2ccc(NC3=NCCN3)cc2)cc1 | 0.4
O=c1ccc2ccc(OCCCCN3CCN(c4cccc5sccc45)CC3)cc2[nH]1 | 0.1
CC1(C)[C@H]2C[C@H](C/C=C\CCCC(=O)O)[C@@H](NC(=O)c3csc4ccc(O)cc34)[C@@H]1C2 | 0.51
O=c1c2cccn2c2ccccc2n1CCCN1CCC(c2ccc(Cl)cc2)CC1 | -0.52
Cc1sc2c(c1C)C(c1ccc(Cl)cc1)=N[C@H](CC(=O)OC(C)(C)C)c1nnc(C)n1-2 | 0.45
CC(=O)c1ccc2c(c1)[C@@H]1C=CC[C@@H]1[C@H](c1cc3c(cc1Br)OCO3)N2 | -0.78
Cc1ccc(OCC(O)C(C)NC(C)C)c2c1CCC2.Cl (stereo not given) | 0.74
COc1ccc2cc(S(=O)(=O)N[C@H](CC(=O)N[C@H](Cc3ccc(CN4[C@H](C)CCC[C@@H]4C)cc3)C(=O)N(C)C(C)C)c3ccc4c(c3)OCO4)ccc2c1.Cl | -0.6
CCNC1(C(N)=O)CCN(c2ncnc3c2nc(-c2ccccc2Cl)n3-c2ccc(Cl)cc2)CC1 | -0.34
CC(=O)NCCc1c(Cc2ccccc2)[nH]c2ccccc12 | 0.94
Cn1cc(C(=O)OCC2CCN(CCNS(C)(=O)=O)CC2)c2ccccc21 | 0.1
c1ccc(NCc2ccc(CNc3ccccn3)cc2)nc1 | 0.23
O=C(NC[C@@H]1[C@H]2CN(C(=O)OCc3cc(C(F)(F)F)cc(C(F)(F)F)c3)C[C@@H]12)c1ccc2[nH]nnc2c1 | -0.64
O=C(CCCc1ccccc1)Nc1nc2ccccc2c(=O)s1 | -0.62
CN[C@@H]1C[C@H]2O[C@@](C)([C@@H]1OC)n1c3ccccc3c3c4c(c5c6ccccc6n2c5c31)C(=O)NC4 | 0.41
